- System: Staphylococcus aureus
- test summary: Antibacterial activity against methicillin-resistant Staphylococcus aureus S24 measured after overnight incubation by broth double-dilution method
- Type: functional
Please go through the items and note down their MIC.
Write down the numeric answer in µg/mL and omit the unit.

Fill blank: measured MIC of the molecule O=c1c2ccccc2sn1CCCc1ccccc1 is ____.
2

So what does the record say about MIC for O=c1c2ccccc2sn1-c1ccc(F)cc1 ?
2

Please give the measured MIC for this molecule: O=c1c2ccccc2sn1C1CCCCC1
3.9

// lookup MIC for CCCCCCCCCCCCn1sc2ccccc2c1=O
1

Fill in: MIC of CCCCCn1sc2ccccc2c1=O is ___
3.9

Quick check: MIC of O=c1c2ccccc2[s+]([O-])n1C1CCCCCCC1 (configuration not stated) ?
125

What measured MIC goes with O=c1c2ccccc2sn1-c1cccc(Br)c1 ?
3.9

# query: MIC of entry C#Cc1ccc(-n2sc3ccccc3c2=O)cc1
2

Can you look up the measured MIC of O=c1c2ccccc2sn1-c1ccc(Cl)cc1 for me?
1

Record request: MIC value, item Cc1cc(C)cc(-n2sc3ccccc3c2=O)c1
7.8

Dear colleague, I am looking for the recorded MIC of the following molecule: O=c1c2ccccc2sn1-c1ccc(Br)cc1
2
